- MEASUREMENT_TARGET: ZADH2 (UniProt Q8N4Q0)
- Sequence (Q8N4Q0 whole entry, looked up): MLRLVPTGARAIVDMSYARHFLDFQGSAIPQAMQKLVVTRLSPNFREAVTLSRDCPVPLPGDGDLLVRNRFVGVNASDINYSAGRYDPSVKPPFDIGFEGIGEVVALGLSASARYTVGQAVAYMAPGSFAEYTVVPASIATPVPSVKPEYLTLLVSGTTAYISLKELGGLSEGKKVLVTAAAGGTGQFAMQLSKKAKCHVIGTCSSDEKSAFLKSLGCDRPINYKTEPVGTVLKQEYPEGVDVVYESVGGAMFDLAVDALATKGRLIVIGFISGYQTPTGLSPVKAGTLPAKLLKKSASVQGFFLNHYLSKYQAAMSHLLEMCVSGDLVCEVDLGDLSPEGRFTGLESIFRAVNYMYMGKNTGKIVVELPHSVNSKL
- EXPERIMENTAL_DETAILS: log2 fold change, soluble protein after heating vs DMSO (PISA); higher = thermal stabilisation; K562 cells, 10 uM, 30 min; active = over 0.2 and 3.5 SD of the protein, either way, in both replicates (recomputed)
The full data set covers some 7,900 targets. This sample favours those with a hit. About 0.6% of all pairs of compound and target were hits.
Reported log2 fold change values follow for various compounds
Reply briefly: the number, and no unit.

INSERT INTO measurements (compound, recorded_number) VALUES
  ('COc1cc(C(=O)O)ccc1NC(=O)[C@@H]1N[C@@H](CC(C)(C)C)[C@](C#N)(c2ccc(Cl)cc2F)[C@H]1c1cccc(Cl)c1F [idasanutlin]', -0.235);

Given the entry Cc1ccc(C(=O)N(CCCN)[C@@H](c2nc3cc(Cl)ccc3c(=O)n2Cc2ccccc2)C(C)C)cc1 [ispinesib] , report its measured log2 fold change. -0.107

// log2 fold change lookup, key: COc1cc2ncnc(Nc3ccc(F)c(Cl)c3)c2cc1OCCCN1CCOCC1 [gefitinib] -0.029

Need log2 fold change of CC(C)C[C@@H](C=O)NC(=O)[C@H](CC(C)C)NC(=O)[C@H](CC(C)C)NC(=O)OCc1ccccc1 , thanks. -0.045

Can you look up the measured log2 fold change of C#Cc1cccc(Nc2ncnc3cc(OCCOC)c(OCCOC)cc23)c1 [erlotinib] for me? 0.005
